# PROCEDURE_SUMMARY: Deoxyribose-damaging property as a measure of hydroxyl-radical formation (uM of malondialdehyde/mmol of deoxyribose released by 75 uM test compound)
PROPERTY_NAME: Deoxyribose degradation (uM of MDA mM-1)

- INPUT_SMILES: "CC(=O)Oc1cccc2cc3cccc(OC(C)=O)c3c(OC(C)=O)c12"
  RESULT: "< 0.15"
- INPUT_SMILES: "COc1c(OC)c(OC(C)=O)c2cc(Cl)ccc2c1OC(C)=O"
  RESULT: "< 0.15"
- INPUT_SMILES: "O=C1c2c(O)cccc2C(C(=O)Cc2cc(OCc3ccccc3)c(OCc3ccccc3)c(OCc3ccccc3)c2)c2cccc(O)c21"
  RESULT: "< 0.2"
